- target or test system: D(2) dopamine receptor (Rattus norvegicus, UniProt P61169)
- Sequence (P61169 whole entry): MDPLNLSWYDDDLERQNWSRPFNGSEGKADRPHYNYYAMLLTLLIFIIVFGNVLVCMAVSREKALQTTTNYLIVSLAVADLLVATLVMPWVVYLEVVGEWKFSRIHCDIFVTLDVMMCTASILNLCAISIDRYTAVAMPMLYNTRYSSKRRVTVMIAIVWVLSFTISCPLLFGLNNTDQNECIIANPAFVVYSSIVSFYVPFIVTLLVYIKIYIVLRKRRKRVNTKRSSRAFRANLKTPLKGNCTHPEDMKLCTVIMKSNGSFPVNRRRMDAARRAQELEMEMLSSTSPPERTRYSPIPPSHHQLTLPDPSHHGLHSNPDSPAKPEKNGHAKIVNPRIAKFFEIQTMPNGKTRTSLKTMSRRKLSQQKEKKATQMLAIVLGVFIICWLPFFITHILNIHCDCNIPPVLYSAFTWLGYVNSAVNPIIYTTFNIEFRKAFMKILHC
- procedure text: Compound was evaluated for the binding affinity against [3H]raclopride-labeled dopamine receptor D2 in rat striatum
- Assay type: tissue-based

{"columns": ["molecule", "target or test system", "Ki"],
 "data": [
  ["COc1cccc2c1C[C@H]1CCN(CC3CC3)[C@@H]1C2 (racemic)", "D(2) dopamine receptor (Rattus norvegicus, UniProt P61169)", "> 1000 nM"]
]}

* * *

- target or test system: D(2) dopamine receptor (Homo sapiens)
- Sequence (P14416 whole entry): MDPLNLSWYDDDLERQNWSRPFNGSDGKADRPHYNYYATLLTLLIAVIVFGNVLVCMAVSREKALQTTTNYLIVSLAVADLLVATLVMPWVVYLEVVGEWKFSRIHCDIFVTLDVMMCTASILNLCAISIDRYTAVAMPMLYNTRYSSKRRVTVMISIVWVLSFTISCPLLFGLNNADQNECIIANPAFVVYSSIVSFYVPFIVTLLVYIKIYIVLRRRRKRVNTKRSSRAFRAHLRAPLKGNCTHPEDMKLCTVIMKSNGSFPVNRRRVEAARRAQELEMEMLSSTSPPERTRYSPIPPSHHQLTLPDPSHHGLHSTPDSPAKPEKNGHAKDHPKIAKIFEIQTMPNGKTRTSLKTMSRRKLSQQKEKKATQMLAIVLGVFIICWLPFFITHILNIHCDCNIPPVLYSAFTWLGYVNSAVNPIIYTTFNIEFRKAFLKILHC
- procedure text: Intrinsic activity from GTP shift using CHO cell membranes expressing dopamine receptor D2
- Assay type: functional
# Intrinsic activity per record follows

{"columns": ["compound", "Intrinsic activity, %"],
 "data": [
  ["CCCN1CC[C@H]2Cc3c(O)cccc3C[C@@H]21", 18],
  ["CCCN1CC[C@@H]2Cc3c(O)cccc3C[C@H]21 (racemic)", 79],
  ["C=CCN1CC[C@H]2Cc3c(O)cccc3C[C@@H]21", 21],
  ["Oc1cccc2c1C[C@H]1CCN(CC3CC3)[C@@H]1C2 (racemic)", 73],
  ["C=CCN1CC[C@@H]2Cc3c(O)cccc3C[C@H]21 (racemic)", 91],
  ["CCCN1CC[C@@H]2Cc3c(O)cccc3C[C@@H]21 (racemic)", 61]
]}

Recorded values, source ChEMBL document CHEMBL1126639.
